Measured values drawn from the PolyMetriX glass transition set for this set.

property_label: glass transition temperature (°C)

Consider the reported glass transition temperature for these compounds:
compound | quantity_unit | endpoint_value
*O[Si](*)(C)CCc1cc(-c2nnc(-c3ccc(OCCCCCCCCCCCC)cc3)o2)ccc1-c1nnc(-c2ccc(OCCCCCCCCCCCC)cc2)o1 (repeat unit) | °C | 156.00
*Nc1ccc(-c2ccc(NC(=O)c3cccc(C(*)=O)c3)c(O)c2)cc1O (repeat unit) | °C | 386.00

I = *c1ccc2c(c1)C(=O)N(c1cc(-c3ccc(O)c(N4C(=O)c5ccc(C(*)(C(F)(F)F)C(F)(F)F)cc5C4=O)c3)ccc1O)C2=O (repeat unit)
II = *Oc1ccc(C(c2ccc(OC(*)=O)cc2)C(Cl)Cl)cc1 (repeat unit)
III = *CCN(CCOC(=O)NC(C)(C)c1cccc(C(C)(C)NC(=O)O*)c1)c1ccc(/N=N/c2ccc([N+](=O)[O-])cc2)cc1 (repeat unit)
Order the records by glass transition temperature, with each subsequent value no larger than the one before. Order the labels as requested and list them.
I, II, III

a = *Nc1ccc(C2(c3ccc(NC(=O)c4ccc(-c5ccc(C(*)=O)c(C)c5)cc4C)cc3)c3ccccc3-c3ccccc32)cc1 (repeat unit)
b = *Oc1ccc(C(C)(C)c2ccc(Oc3ccc(C(=O)c4ccc5cc(C(=O)c6ccc(*)cc6)ccc5c4)cc3)cc2)cc1 (repeat unit)
Could you kindly indicate whether a or b has the higher glass transition temperature value? Write the label of whichever entry you select.
a
(a: 293.00 °C, b: 185.00 °C)

* * *

property_label: glass transition temperature (°C)

Example entries and their recorded answers appear below.
compound | quantity_unit | endpoint_value
*CCC(C)S* (repeat unit) | °C | -59.00
*CC(*)C1CCC(C(C)(C)C)CC1 (repeat unit) | °C | 131.00

P = *c1ccc(Oc2ccc(S(=O)(=O)c3ccc(Oc4ccc(-c5c6c(c(*)c7ccccc57)C(=O)N(c5ccc(C(F)(F)F)cc5)C6=O)cc4)cc3)cc2)cc1 (repeat unit)
Q = *CCCCCCCCCN1C(=O)c2ccc(-c3ccc(-c4ccc5c(c4)C(=O)N(*)C5=O)cc3)cc2C1=O (repeat unit)
Quick check, higher glass transition temperature between P and Q ? Write the label of whichever entry you select.
P
(P: 290.00 °C, Q: 104.00 °C)

* * *

property_label: glass transition temperature (°C)

// below: answered compounds
compound | property_label | endpoint_value
*Oc1c(C)cc(C(C)(C)c2cc(C)c(OC(*)=O)c(C)c2)cc1C (repeat unit) | glass transition temperature | 193.00
*/C=C/c1cc(OCC(CC)CCCC)c(*)cc1OC (repeat unit) | glass transition temperature | 79.00
*CC(*)(C)C(=O)Oc1c(Cl)c(Cl)c(Cl)c(Cl)c1Cl (repeat unit) | glass transition temperature | 110.00
*c1ccc(Oc2cccc(N3C(=O)c4ccc([Si](C)(C)O[Si](C)(C)c5ccc6c(c5)C(=O)N(c5cccc(Oc7ccc(-c8nnc(*)o8)cc7)c5)C6=O)cc4C3=O)c2)cc1 (repeat unit) | glass transition temperature | 165.00
*C(=O)OCCCCCCCCCCOC(=O)c1ccc(N2C(=O)c3ccc(*)cc3C2=O)cc1 (repeat unit) | glass transition temperature | 58.00

P = *c1ccc2c(c1)C(=O)N(c1ccc(Oc3ccc(N4C(=O)c5ccc(C(*)O)cc5C4=O)cc3)cc1)C2=O (repeat unit)
Q = */C(C#N)=C/c1cc(OCCCCCCCC)c(/C=C(\C#N)c2cc(OCCCCCCCC)c(*)cc2OC)cc1OC (repeat unit)
Which numeric glass transition temperature is bigger, that of P or that of Q ? Reply briefly: the label of your chosen item.
P

* * *

property_label: glass transition temperature (°C)

Worked examples, 5 compounds total:
compound | glass transition temperature, °C
*/C=C/c1ccc(/C=C/[Si](C)(CCC(F)(F)F)c2ccc([Si](*)(C)CCC(F)(F)F)cc2)cc1 (repeat unit) | 55.70
*c1ccc(C(=O)OCCCCCCOc2ccc(/C=C3\CCCC/C(=C\c4ccc(OCCCCCCOC(=O)c5ccc(-c6nnc(*)o6)cc5)cc4)C3=O)cc2)cc1 (repeat unit) | 104.00
*CC(*)(C)C(=O)OCCCCCCOc1ccc(C(=O)Oc2ccc(/N=N/c3ccc(Cl)cc3)c3ccccc23)cc1 (repeat unit) | 50.00
*CNC(=O)OCC(OC(=O)NCc1ccc(*)o1)c1ccco1 (repeat unit) | 30.00
*c1ccc(Oc2ccc(N3C(=O)c4ccc(Oc5ccc(C6(c7ccc(Oc8ccc9c(c8)C(=O)N(*)C9=O)cc7)CCCCCCCCCCC6)cc5)cc4C3=O)cc2)cc1 (repeat unit) | 230.00

P = *c1ccc(-c2ccc(-n3c(=O)c4cc5c(=O)n(*)c(=O)c5c(C(F)(F)F)c4c3=O)cc2C)c(C)c1 (repeat unit)
Q = *O[Si](C)(C)O[Si](C)(C)O[Si](C)(C)O[Si](C)(C)Oc1c(*)c2ccccc2c2ccccc12 (repeat unit)
R = *Oc1ccc(Oc2ccc(Oc3cccc(C(=O)Oc4ccc(OC(=O)c5cccc(*)c5)cc4)c3)cc2)cc1 (repeat unit)
# sort list by recorded glass transition temperature, greatest to least Form entry: labels listed in requested order.
P, R, Q

* * *

property_label: glass transition temperature (°C)

Consider the reported glass transition temperature for these compounds:
compound | glass transition temperature [°C]
*c1ccc(Sc2ccc(S(*)(=O)=O)cc2)cc1 (repeat unit) | 215.00
*O[Si](*)(C)CCCCCCCCCCC(=O)Oc1ccc(OC(=O)c2ccc(OCC(C)CC)cc2)cc1 (repeat unit) | 13.40
*C(=O)N1C(=S)N(C(=O)c2ccc3c(c2)C(=O)N(c2ccc(Oc4ccc(N5C(=O)c6ccc(*)cc6C5=O)cc4)cc2)C3=O)C(C)=C(C(=O)OCC)C1c1ccc(OC)cc1OC (repeat unit) | 165.00
*C/C=C/COC(=O)CCCCCCCCC(=O)O* (repeat unit) | -41.00
*c1ccc(C(c2ccc(N(*)c3ccc(C)cc3)cc2)c2ccc([N+](=O)[O-])cc2)cc1 (repeat unit) | 215.00

A = *c1ccc(-c2ccc(-c3cc(-c4ccc(Oc5ccc(Oc6ccccc6)cc5)cc4)c4cc(-c5ccc6nc(*)cc(-c7ccc(Oc8ccc(Oc9ccccc9)cc8)cc7)c6c5)ccc4n3)cc2)cc1 (repeat unit)
B = *c1nc(-c2ccccc2)nc(N(CCCCCCN(*)c2ccccc2)c2ccccc2)n1 (repeat unit)
C = *c1ccc(Oc2ccc(Sc3ccc(Oc4ccc(N5C(=O)c6ccc(Oc7ccc(-c8ccc(Oc9ccc%10c(c9)C(=O)N(*)C%10=O)cc8)cc7)cc6C5=O)cc4)cc3)cc2)cc1 (repeat unit)
Kindly order the items shown according to glass transition temperature, from the highest value down. Lab note: record answer as labels in requested order.
A, C, B

A = *Cc1ccc(C(C)c2ccc(CN3C(=O)c4ccc(Oc5ccc6c(c5)C(=O)N(*)C6=O)cc4C3=O)o2)o1 (repeat unit)
B = *c1ccc(Oc2ccc(N3C(=O)c4cccc(Oc5ccc(-c6ccc(Oc7cccc8c7C(=O)N(*)C8=O)cc6)cc5)c4C3=O)cc2)cc1 (repeat unit)
C = *CC(*)(C)C(=O)OCc1cc(Cl)ccc1Cl (repeat unit)
D = *CCCCCCOC(=O)OCCCCCCOC(=O)OCCCCCCN1C(=O)c2ccc(C(=O)c3ccc4c(c3)C(=O)N(*)C4=O)cc2C1=O (repeat unit)
List by increasing glass transition temperature. Reply: labels, ordered per the request.
C, D, A, B
(C: 27.80 °C, D: 40.00 °C, A: 129.00 °C, B: 277.00 °C)

* * *

property_label: glass transition temperature (°C)

See these solved cases before continuing.
molecule | glass transition temperature / °C
*C(=O)c1ccc2c(c1)C(=O)N(c1cc(C(c3ccc(O)c(N4C(=O)c5ccc(*)cc5C4=O)c3)(C(F)(F)F)C(F)(F)F)ccc1O)C2=O (repeat unit) | 315.00
*CCOCCOC(=O)CCCC(=O)O* (repeat unit) | -55.00

1 = *O[Si](*)(C)CCC(F)(F)C(F)(F)C(F)(F)C(F)(F)F (repeat unit)
2 = *CC(*)(C)C(=O)OCc1ccc(/C=C/C(=O)Oc2ccc3oc(=O)ccc3c2)cc1 (repeat unit)
3 = *CC1(C)CC(N2C(=O)c3ccc(Oc4ccc5c(c4)C(=O)N(*)C5=O)cc3C2=O)CC(C)(C)C1 (repeat unit)
Please order the records by their reported glass transition temperature, lowest number first. Response format: the labels, sorted as the prompt asks.
1, 2, 3
(1: -75.00 °C, 2: 140.00 °C, 3: 266.00 °C)

* * *

property_label: glass transition temperature (°C)

compound | glass transition temperature / °C
*CC(*)(C)C(=O)OCCCCOc1ccc(OC(=O)c2ccc(OCCCC)cc2)cc1 (repeat unit) | 51.00

I = *c1ccc(C(c2ccccc2)c2ccc(N3C(=O)c4ccc(-c5ccc6c(c5)C(=O)N(*)C6=O)cc4C3=O)cc2)cc1 (repeat unit)
II = *CC(*)c1ccc(C(O)CCN(C)C)cc1 (repeat unit)
III = *O[Si](*)(C)CCCCCCCCCCC(=O)OCCC(F)(F)C(F)(F)C(F)(F)C(F)(F)C(F)(F)C(F)(F)F (repeat unit)
Place the items in sequence of falling glass transition temperature. Provide your answer as the labels ordered per the instruction.
I, II, III
(I: 315.00 °C, II: 43.00 °C, III: -69.00 °C)
